The origin of these recorded values is the RNAGym collection of RNA variant scans (doi:10.7554/elife.80360).

Below, each of the variants is paired with its reported self-cleavage value.
B1: Twister Ribozyme (parent)
chain: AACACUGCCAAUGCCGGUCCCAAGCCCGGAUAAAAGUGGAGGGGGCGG

Variants of: B1
METHOD_NOTES: self-cleavage, relative activity (ratio to wild type); higher = more cleavage; co-transcriptional
Please state the value as a number alone, without comment.

{"MUTANT_ID": "C20A G44A", "self-cleavage": 0.198}
{"MUTANT_ID": "G16A G42U", "self-cleavage": 0.197}

Lab note: next variant to report on.
Query: Give self-cleavage for the following variant: A4C A10U
Result: 0.203
